All figures here come from paper PMC3793977.

Molecular target: NS3/4A protease genotype 1a (Hepatitis C virus genotype 1a)
Construct: against the NS3/4A protease domains from three additional HCV genotypes (1a, 2a, and 4d)
Experiment: Inhibition assay with NS3/4A from genotype 1a
Conditions: IC50 NS3/4A genotype 1a
readoutName: IC50

## Task Supply recorded IC50 for Cc1cc(NC(=O)Cc2csc(NS(=O)(=O)c3ccccc3)n2)ccc1Br here.
## Result < 20 µM

----------
Molecular target: HCV replicon cell lysate sg 2a (NS3) (Hepatitis C virus genotype 2a, UniProt Q99IB8)
Construct: whole cell lysate
Experiment: Whole cell lysate inhibition assay, HCV subgenomic replicon 2a
Conditions: whole cell lysate, subgenomic replicon 2a
Experimental: Huh7-1 cells (also known as Huh7/scr cells) were obtained from F.V. Chisari (The Scripps Research Institute, La Jolla, CA). Clone B HCV sub-genotype 1b Huh7 cells were obtained from the NIH AIDS Research and Reference Reagent Program and have been previously described. […] Fluorescence intensity was continuously monitored for 1 hour, and IC50 values were determined in the same way as biochemical assays.
readoutName: IC50 (nM)
Reply with just the number (in nM).

## Task Supply recorded IC50 for COc1ccc2c(O[C@@H]3C[C@H]4C(=O)N[C@]5(C(=O)O)C[C@H]5/C=C\CCCCC[C@H](NC(=O)OC5CCCC5)C(=O)N4C3)cc(-c3csc(NC(C)C)n3)nc2c1 [BILN-2061, reference compound] here.
## Result 230

----------
Recorded IC50 values for a group of compounds are listed next.
Molecular target: NS3/4A protease genotype 4d (Hepatitis C virus subtype 4d, UniProt Q1ZZ56)
Experiment: Inhibition assay with NS3/4A from genotype 4d

compound="Cc1cc(NC(=O)Cc2csc(NS(=O)(=O)c3ccccc3)n2)ccc1Br [Compound 12]" readoutname=IC50 result="< 20 µM"

// below: IC50 requested for another compound
## Task Tell me IC50 of CC(C)C(=O)N1CCc2ccc(NC(=O)COc3ccc(F)cc3)cc2C1 [Compound 13] when tested on NS3/4A protease genotype 4d (Hepatitis C virus subtype 4d, UniProt Q1ZZ56).
## Result < 20 µM

----------
Target: full-length NS3/4A (Hepatitis C virus genotype 1b, UniProt Q9WMX2)
Construct: wild-type HCV NS3 (HCV polyprotein residues 1027–1657); His-tag (N); made in house
Assay: SPR binding assay (dissociation equilibrium constant KD)
Conditions: SPR, 25°C, single rectangular hyperbolic fit
readoutName: Kd (µM)
Reply with just the number (in µM).

## Task Supply recorded Kd for CC1(C)CCc2cc(/C=C(\C#N)C(=O)c3cccc(C(F)(F)F)c3)ccc2O1 here.
## Result 8.3

----------
Target: NS3 protease domain (Hepatitis C virus genotype 1b, UniProt Q9WMX2)
Construct: the full-length NS3/4A and the NS3/4A protease domain alone
Assay: Fluorescence enzymatic assay with NS3 protease domain alone
Format: biochemical
Conditions: NS3/4A protease domain only; read-out: IC50 NS3 protease domain
readoutName: IC50 (µM)
Reply with just the number (in µM).

## Task Supply recorded IC50 for Cc1cc(NC(=O)Cc2csc(NS(=O)(=O)c3ccccc3)n2)ccc1Br here.
## Result 9.3
